Reference source for all entries: patent US7135326B2

Tested on: Grape GT
Experiment: Substrate specificity of the purified recombinant Grape GT, HPLC analysis of glucose ester formation
Format: biochemical, Vitis sp.
Details: relative to pHBA = 100, 10 mM test substrate, 0.0467 μM purified Grape GT, 15 min, 25° C.
Could you please report measured Relative Rate of product formation for the items listed next?

q: Checklist item: Relative Rate of product formation tested on Grape GT, entry O=C(O)c1ccccc1O [OHBA, o-Hydroxybenzoic acid] , value?
a: 0

q: Lookup: Relative Rate of product formation / Grape GT / O=C(O)c1cccc(O)c1 [MHBA, m-Hydroxybenzoic acid]
a: 47

q: Report Relative Rate of product formation for O=C(O)c1ccc(O)cc1 [PHBA, p-Hydroxybenzoic acid] tested on Grape GT.
a: 100

q: Notebook: pull reported Relative Rate of product formation for Grape GT, entry O=C(O)C=Cc1ccc(O)cc1 [PHCA, 4-hydroxycinnamic acid]
a: 56

q: Requested read-out Relative Rate of product formation, target or system Grape GT, entry O=C(O)c1cc(O)c(O)c(O)c1
a: 64

q: Grape GT / Relative Rate of product formation / O=C(O)/C=C/c1ccc(O)c(O)c1 : value?
a: 25

q: Please tell me: Relative Rate of product formation of COc1cc(/C=C/C(=O)O)ccc1O , system Grape GT?
a: 16

q: Item: COc1cc(/C=C/C(=O)O)cc(OC)c1O Test system: Grape GT Read-out: Relative Rate of product formation Value: ?
a: 10

====

pKi: −log10 of the molar value.
attribute-measured: pKi

q: Any idea what pKi came out for O=C(O)c1ccc(O)cc1 [PHBA, p-Hydroxybenzoic acid] on CPL (Escherichia coli)?
a: ~5.70
